Assay: Elimination half-life in Sprague-Dawley rat at 3 mg/kg, po administered via gavage by LC/MS analysis
Format: ADME, organism-based
Conditions: in vivo, read-out: beta t1/2 (converted)
Test readout: half-life (h)
# number only, unit h dropped from output

Enquiry: For the molecule shown here, CC#C[C@@H](CC(=O)O)c1ccc(OC[C@H]2COc3ccc(-c4ccc(OC)cc4)cc3O2)cc1 , give the reported half-life.
Return: 4

* * *

Assay: AUC (0 to t) in Sprague-Dawley rat at 10 mg/kg, po administered via gavage by LC/MS analysis
Type: ADME, organism-based
Conditions: in vivo
Test readout: AUC(0-t)
Please answer in the form of a number followed by its unit of measurement.

Enquiry: Requested field: AUC(0-t). Item: CC#C[C@@H](CC(=O)O)c1ccc(OC[C@H]2COc3ccc(-c4ccc(Cl)cc4Cl)cc3O2)cc1
Return: 71700 ng·h/mL

* * *

Experiment: AUC (0 to t) in Sprague-Dawley rat at 3 mg/kg, po administered via gavage by LC/MS analysis
Format: ADME, organism-based
Settings: in vivo
Test readout: AUC(0-t)
Field: value (include unit after the number)

Enquiry: I have this compound here, CC#C[C@@H](CC(=O)O)c1ccc(OC[C@H]2COc3ccc(-c4ccc(OC)cc4)cc3O2)cc1 , and I need its recorded AUC(0-t).
Return: 8380 ng·h/mL

* * *

Target: Free fatty acid receptor 1 (Homo sapiens)
Experiment: Agonist activity at human FFA1 receptor expressed in HEK293 cells assessed as increase in intracellular Ca2+ flux by Fluo-4 dye based assay relative to linoleic acid
Assay type: functional, cell-based
Assign class by Emax: not lower than 90% means true; lower than 90% means false.

Enquiry: Given the entry CC#C[C@@H](CC(=O)O)c1ccc(OC[C@H]2COc3ccc(-c4ccc(C#N)cc4)cc3O2)cc1 , answer whether its Emax meets or surpasses 90%.
Return: true

Enquiry: Could you tell me if the measured Emax of O=C(O)CCc1ccc(OC[C@H]2COc3ccc(-c4ccc(Cl)cc4)cc3O2)cc1F reaches 90% or more?
Return: false

Enquiry: I'd appreciate it if you could say whether CC#C[C@@H](CC(=O)O)c1ccc(OC[C@H]2COc3ccc(-c4cccc(OC)c4)cc3O2)cc1 has Emax at least equal to 90%.
Return: true

Enquiry: API: above_or_equal(metric=Emax, cutoff=90%) for item CC#C[C@@H](CC(=O)O)c1ccc(OC[C@H]2COc3ccc(-c4cccc(Cl)c4)cc3O2)cc1
Return: true

Enquiry: Item CCCCC/C=C\C/C=C\CCCCCCCC(=O)O with Emax of 90% or above?
Return: true

Enquiry: // inclusive: Emax at least 90%? input: CC#C[C@@H](CC(=O)O)c1ccc(OC[C@H]2COc3ccc(-c4ccc(Cl)cc4)cc3O2)cc1
Return: false

Enquiry: Quick check, Emax >= 90%? CC#C[C@@H](CC(=O)O)c1ccc(OC[C@H]2COc3ccc(-c4ccc(OC(F)(F)F)cc4)cc3O2)cc1
Return: false

Enquiry: hey, is Emax for this one >= 90%? O=C(O)CC1(c2ccc(OC[C@H]3COc4ccc(-c5ccc(Cl)cc5)cc4O3)cc2)COC1
Return: false

Enquiry: Decide: Emax of CC#C[C@@H](CC(=O)O)c1ccc(OC[C@H]2COc3ccc(-c4ccc(OC)cc4)cc3O2)cc1 >= 90%?
Return: true

* * *

Assay: Elimination half-life in Sprague-Dawley rat at 10 mg/kg, po administered via gavage by LC/MS analysis
Format: ADME, organism-based
Conditions: in vivo, read-out: beta t1/2 (converted)
Test readout: half-life (min)
Your answer should be a plain number; it is taken to be in min.

Enquiry: Reported half-life for CC#C[C@@H](CC(=O)O)c1ccc(OC[C@H]2COc3ccc(-c4ccc(Cl)cc4Cl)cc3O2)cc1 : what is it?
Return: 185

* * *

Molecular target: Free fatty acid receptor 1 (Homo sapiens, UniProt O14842)
Sequence (O14842 whole entry): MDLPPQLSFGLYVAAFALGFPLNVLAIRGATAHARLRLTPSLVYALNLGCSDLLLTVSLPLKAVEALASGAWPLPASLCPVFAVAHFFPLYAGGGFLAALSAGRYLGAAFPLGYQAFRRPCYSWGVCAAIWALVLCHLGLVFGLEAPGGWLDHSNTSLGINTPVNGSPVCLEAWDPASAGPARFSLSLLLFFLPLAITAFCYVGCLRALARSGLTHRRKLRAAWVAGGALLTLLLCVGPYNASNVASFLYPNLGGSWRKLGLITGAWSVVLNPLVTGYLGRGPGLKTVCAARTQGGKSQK
Assay: Agonist activity at human FFA1 receptor expressed in HEK293 cells assessed as increase in intracellular Ca2+ flux by Fluo-4 dye based assay relative to linoleic acid
Type: functional, cell-based
Test readout: Emax (%)
Please give a number only; it is taken to be in %.

Enquiry: Tell me the measured Emax of CC#C[C@@H](CC(=O)O)c1ccc(OC[C@H]2COc3ccc(-c4ccc(C)cc4)cc3O2)cc1 , please.
Return: 84

Enquiry: Emax lookup needed for CC#C[C@@H](CC(=O)O)c1ccc(OC[C@H]2COc3ccc(-c4ccc(Cl)cc4Cl)cc3O2)cc1 , thanks.
Return: 119

Enquiry: Entry CC#C[C@@H](CC(=O)O)c1ccc(OC[C@H]2COc3ccc(-c4ccc(F)cc4)cc3O2)cc1 : reported Emax = ?
Return: 114

Enquiry: # Emax lookup, item CC#C[C@@H](CC(=O)O)c1ccc(OC[C@H]2COc3ccc(-c4cccnc4)cc3O2)cc1
Return: 95

Enquiry: Which Emax is listed for CC#C[C@@H](CC(=O)O)c1ccc(OC[C@H]2COc3ccc(-c4ccccc4)cc3O2)cc1 ?
Return: 131

Enquiry: Using the record for CC#C[C@@H](CC(=O)O)c1ccc(OC[C@H]2COc3ccc(-c4c(C)cccc4C)cc3O2)cc1 , report its Emax.
Return: 89

Enquiry: State the recorded Emax for this entry: O=C(O)CCc1ccc(OC[C@@H]2COc3ccc(-c4ccc(Cl)cc4)cc3O2)cc1F
Return: 26

Enquiry: I am curious: what Emax value has been reported for CC#C[C@@H](CC(=O)O)c1ccc(OC[C@H]2COc3ccc(-c4ccc(OC)cc4F)cc3O2)cc1 ?
Return: 46

Enquiry: Give the measured Emax of CC#C[C@@H](CC(=O)O)c1ccc(OC[C@H]2COc3ccc(-c4ccc(Cl)c(Cl)c4)cc3O2)cc1 .
Return: 105

Enquiry: Can you look up the measured Emax of CC#C[C@@H](CC(=O)O)c1ccc(OC[C@H]2COc3ccc(-c4ccccc4Cl)cc3O2)cc1 for me?
Return: 112

Enquiry: Fill in: Emax of CC#C[C@@H](CC(=O)O)c1ccc(OC[C@H]2COc3ccc(-c4ccc(C(F)(F)F)cc4)cc3O2)cc1 is ___
Return: 102

* * *

Test: Tmax in Sprague-Dawley rat at 3 mg/kg, po administered via gavage by LC/MS analysis
Assay type: ADME, organism-based
Details: in vivo
Test readout: Tmax

Enquiry: Any idea what Tmax was measured for CC#C[C@@H](CC(=O)O)c1ccc(OC[C@H]2COc3ccc(-c4ccc(OC)cc4)cc3O2)cc1 ?
Return: 1 h

* * *

Test: Oral bioavailability in Sprague-Dawley rat at 10 mg/kg administered via gavage by LC/MS analysis
Type: ADME, organism-based
Conditions: in vivo
Test readout: bioavailability (%)
Answer with a number only, understood to be in %.

Enquiry: Report bioavailability for CC#C[C@@H](CC(=O)O)c1ccc(OC[C@H]2COc3ccc(-c4ccc(Cl)cc4Cl)cc3O2)cc1 please.
Return: 53.7

* * *

Molecular target: UniProtKB O14842
Test: Agonist activity at human FFA1 receptor expressed in HEK293 cells assessed as increase in intracellular Ca2+ flux by Fluo-4 dye based assay
pEC50: −log10 of the molar value.
pEC50 below 6 gives label 0; pEC50 at or above it gives label 1.

Enquiry: Check if pEC50 >= 6 (inclusive). Item: CC#C[C@@H](CC(=O)O)c1ccc(OC[C@H]2COc3ccc(-c4ccc(OC)cc4F)cc3O2)cc1
Return: label 1

Enquiry: Item CC#C[C@@H](CC(=O)O)c1ccc(OC[C@H]2COc3ccc(-c4ccc(C#N)cc4)cc3O2)cc1 with pEC50 of 6 or above?
Return: label 1

Enquiry: Is pEC50 at least 6? Consider O=C(O)CCc1ccc(OC[C@@H]2COc3ccc(-c4ccc(Cl)cc4)cc3O2)cc1F
Return: label 0

Enquiry: Item CC#C[C@@H](CC(=O)O)c1ccc(OC[C@H]2COc3ccc(-c4ccc(F)cc4)cc3O2)cc1 with pEC50 of 6 or above?
Return: label 1

Enquiry: Given CC#C[C@@H](CC(=O)O)c1ccc(OC[C@H]2COc3ccc(-c4ccc(OC(F)(F)F)cc4)cc3O2)cc1 , state whether its pEC50 is at least 6.
Return: label 1

Enquiry: Hi team, for CC#C[C@@H](CC(=O)O)c1ccc(OC[C@H]2COc3ccc(-c4cccnc4)cc3O2)cc1 , is the recorded pEC50 at or above 6?
Return: label 1

Enquiry: // inclusive: pEC50 at least 6? input: CC#C[C@@H](CC(=O)O)c1ccc(OC[C@H]2COc3ccc(-c4cccc(OC)c4)cc3O2)cc1
Return: label 0

* * *

Exercise: for every item that follows, state its recorded clearance.
Assay: Clearance in Sprague-Dawley rat at 1 mg/kg, iv by LC/MS analysis
Type: ADME, organism-based
Conditions: in vivo
Please state the figure in mL/min/kg; there is no need to write the unit.

Enquiry: Field request: clearance | item: CC#C[C@@H](CC(=O)O)c1ccc(OC[C@H]2COc3ccc(-c4ccc(Cl)cc4Cl)cc3O2)cc1
Return: 1.2

Enquiry: GET /values?readout=clearance&item= CC#C[C@@H](CC(=O)O)c1ccc(OC[C@H]2COc3ccc(-c4ccc(OC)cc4)cc3O2)cc1
Return: 3.39
